Where these numbers come from: PubChem BioAssay (NCI)

test system: SW-620 colon; assay: NCI tumour cell line growth inhibition, 48 h
We begin with a simple list: items and their reported GI50.
EXPERIMENTAL_READOUT: GI50

COMPOUND_STRUCTURE_STRING	RECORDED_MEASUREMENT
CCN(CC)c1ccc(/C=C/C(=O)c2cccc(NS(C)(=O)=O)c2)cc1	3.27 µM
O=C(O)c1cn(C2CC2)c2cc(N3CCN(S(=O)(=O)c4ccc(Cl)c(Cl)c4)CC3)c(F)cc2c1=O	4.05 µM
CC(C)[C@@H](C(=O)O[C@@H]1/C=C/C(=O)O[C@@H](C)CCC/C=C/[C@@H]2C[C@H](O)C[C@H]21)[N+](C)(C)C	> 100 µM
CC(=O)OCCC/C(=C\c1ccc2ccccc2c1)[N+](=O)[O-]	1.44 µM
Cc1cc[c-]cc1.Fc1c[c-]c(-c2ccccn2)c(F)c1.N#CCC[PH+](CCC#N)c1ccccc1.[Pt+2]	2.25 µM
COC(=O)Nc1nc2c(OC)c(OC)c(OC)cc2[nH]1	5.8 µM
